The values you see were collected from patent US20230257351A1.

Field: IC50. Provide a value for each of the molecules that follow.
# Assayed system: UniProt Q99571
# Sequence (Q99571 whole entry): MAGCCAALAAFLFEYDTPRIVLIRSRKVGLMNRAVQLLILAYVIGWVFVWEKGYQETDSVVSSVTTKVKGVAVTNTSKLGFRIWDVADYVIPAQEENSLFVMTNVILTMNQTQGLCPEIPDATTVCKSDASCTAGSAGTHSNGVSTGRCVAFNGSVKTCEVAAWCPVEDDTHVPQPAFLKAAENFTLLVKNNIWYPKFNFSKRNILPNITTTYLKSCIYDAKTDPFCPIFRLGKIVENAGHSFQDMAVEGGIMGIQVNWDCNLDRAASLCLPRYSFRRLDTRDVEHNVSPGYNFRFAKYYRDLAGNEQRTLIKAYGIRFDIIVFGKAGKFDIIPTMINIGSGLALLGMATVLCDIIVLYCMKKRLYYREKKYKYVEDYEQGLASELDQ
# Procedure text: Human P2X4 HEK Cell FLIPR Assay
# Condition notes: HEK293 stably expressing human P2X4; agonist Bz-ATP 3 μM (EC80); read-out: Human P2X4 HEK Cells (FLIPR Assay) avg IC50
One number for each entry, in nM.

Some entries whose results are on file:
• CC(=O)N(c1cc(F)cc(Cl)c1)c1cc(NC(=O)Cc2c(Cl)cccc2Cl)ccn1 = 356
• CC(=O)N(c1cc(C)cc(C#N)c1)c1cc(NC(=O)Cc2c(F)cccc2Cl)ccn1 = 673

Return reported IC50 values for all items listed beneath this line.
1. CC(=O)N(c1cccc(C#N)c1)c1cc(NC(=O)Cc2c(F)cccc2Cl)ccn1
2. CC(=O)N(c1ccc(C)cc1)c1cc(NC(=O)Cc2ccccc2Cl)ccn1
3. CC(=O)N(c1cc(F)cc(F)c1)c1cc(NC(=O)Cc2c(Cl)cc(F)cc2Cl)ccn1
4. CC(=O)N(c1cc(NC(=O)Cc2ccccc2Cl)ccn1)c1cc(F)ccc1Cl
5. CC(=O)N(c1ccc(S(C)(=O)=O)c(F)c1)c1cc(NC(=O)Cc2cccc(F)c2Cl)ccn1
6. CC(=O)N(c1ccc(F)cc1)c1cc(NC(=O)Cc2ccc(Cl)cc2C(F)(F)F)ccn1

1: 408; 2: 406; 3: 272; 4: 204; 5: 895; 6: 909
